- subject.of.test: human-CXCR4 (Homo sapiens)
- Construct: tested first at Jurkat cells that endogenously express the CXCR4 receptor; endogenous in cells; host or cells: Jurkat cells (whole cells in suspension)
- experiment.description: Competition binding assay on Jurkat cells with 125I-CPCR4 as radiotracer
- recorded.conditions: Jurkat cells, 125I-CPCR4 tracer, 2 h at room temperature; read-out: IC50 [nM] (Binding Data)
Where a SMILES comes first, the peptide text is derived from it. Side-chain parts run from the residue outwards. [ ]: non-standard residue; d: D form. The star is where a group is joined. DOTA(Ga) = O=C1CN2CCN3CCN(CC(=O)*)CCN(CC2)CC(=O)[O][Ga]([O]1)[O]C(=O)C3; DOTA(In) = O=C1CN2CCN3CCN(CC(=O)*)CCN(CC2)CC(=O)[O][In]([O]1)[O]C(=O)C3; DOTA = O=C(O)CN1CCN(CC(=O)O)CCN(CC(=O)*)CCN(CC(=O)O)CC1; 2Nal = N[C@@H](Cc1ccc2ccccc2c1)C(=O)O; dNMeOrn = CN[C@H](CCCN)C(=O)O; 4Abz = Nc1ccc(C(=O)O)cc1; Ava = NCCCCC(=O)O; βAla = NCCC(=O)O
test.readout: IC50 (nM)

compound	value.units	quantitative.readout
CN1C(=O)[C@@H](Cc2ccc(O)cc2)NC(=O)CNC(=O)[C@H](Cc2ccc3ccccc3c2)NC(=O)[C@H](CCCNC(=N)N)NC(=O)[C@H]1CCCNC(=O)c1ccc(NC(=O)CNC(=O)CN2CCN(CC(=O)O)CCN(CC(=O)O)CCN(CC(=O)O)CC2)cc1	nM	88.8
CN1C(=O)[C@@H](Cc2ccc(O)cc2)NC(=O)CNC(=O)[C@H](Cc2ccc3ccccc3c2)NC(=O)[C@H](CCCNC(=N)N)NC(=O)[C@H]1CCCNC(=O)c1ccc(NC(=O)CN2CCN3CCN4CCN(CC2)CC(=O)[O][Ga]([O]C(=O)C3)[O]C(=O)C4)cc1 [Compound 17, yorn′(ABS, DOTA, Ga)RNalG] (cyclo([2Nal]G[dY][dNMeOrn]([4Abz-DOTA(Ga)])R))	nM	11.5
CN1C(=O)[C@@H](Cc2ccc(O)cc2)NC(=O)CNC(=O)[C@H](Cc2ccc3ccccc3c2)NC(=O)[C@H](CCCNC(=N)N)NC(=O)[C@H]1CCCNC(=O)c1ccc(NC(=O)CN2CCN(CC(=O)O)CCN(CC(=O)O)CCN(CC(=O)O)CC2)cc1 (single isomer, unassigned) [Compound 13, yorn′(ABS, DOTA, Ga)RNalG]	nM	11.5
CN1C(=O)[C@@H](Cc2ccc(O)cc2)NC(=O)CNC(=O)[C@H](Cc2ccc3ccccc3c2)NC(=O)[C@H](CCCNC(=N)N)NC(=O)[C@H]1CCCNC(=O)c1ccc(NC(=O)CN2CCN(CC(=O)O)CCN(CC(=O)O)CCN(CC(=O)O)CC2)cc1 [Compound 15, yorn′(ABS, DOTA)RNalG]	nM	335
CN1C(=O)[C@@H](Cc2ccc(O)cc2)NC(=O)CNC(=O)[C@H](Cc2ccc3ccccc3c2)NC(=O)[C@H](CCCNC(=N)N)NC(=O)[C@H]1CCCNC(=O)CCCCNC(=O)CCCCNC(=O)CN1CCN2CCN3CCN(CC1)CC(=O)[O][In]([O]C(=O)C2)[O]C(=O)C3 [Compound 23, yorn′(AVS, AVS, DOTA, In)RNalG] (cyclo([2Nal]G[dY][dNMeOrn]([Ava-Ava-DOTA(In)])R))	nM	123
CN1C(=O)[C@@H](Cc2ccc(O)cc2)NC(=O)CNC(=O)[C@H](Cc2ccc3ccccc3c2)NC(=O)[C@H](CCCNC(=N)N)NC(=O)[C@H]1CCCNC(=O)c1ccc(NC(=O)CN2CCN3CCN4CCN(CC2)CC(=O)[O][In]([O]C(=O)C3)[O]C(=O)C4)cc1 [Compound 16, yorn′(ABS, DOTA, In)RNalG] (cyclo([2Nal]G[dY][dNMeOrn]([4Abz-DOTA(In)])R))	nM	105
CN1C(=O)[C@@H](Cc2ccc(O)cc2)NC(=O)CNC(=O)[C@H](Cc2ccc3ccccc3c2)NC(=O)[C@H](CCCNC(=N)N)NC(=O)[C@H]1CCCNC(=O)c1ccc(NC(=O)CCNC(=O)CN2CCN(CC(=O)O)CCN(CC(=O)O)CCN(CC(=O)O)CC2)cc1 [Compound 1, yorn′(ABS, betaAla, DOTA)RNalG] (cyclo([dY][dNMeOrn]([4Abz-βAla-DOTA])R[2Nal]G))	nM	37.6

* * *

- subject.of.test: human-CXCR4 (Homo sapiens, UniProt P61073)
- Construct: tested first at Jurkat cells that endogenously express the CXCR4 receptor; endogenous in cells; host or cells: Jurkat cells (whole cells in suspension)
- Sequence (P61073 whole entry): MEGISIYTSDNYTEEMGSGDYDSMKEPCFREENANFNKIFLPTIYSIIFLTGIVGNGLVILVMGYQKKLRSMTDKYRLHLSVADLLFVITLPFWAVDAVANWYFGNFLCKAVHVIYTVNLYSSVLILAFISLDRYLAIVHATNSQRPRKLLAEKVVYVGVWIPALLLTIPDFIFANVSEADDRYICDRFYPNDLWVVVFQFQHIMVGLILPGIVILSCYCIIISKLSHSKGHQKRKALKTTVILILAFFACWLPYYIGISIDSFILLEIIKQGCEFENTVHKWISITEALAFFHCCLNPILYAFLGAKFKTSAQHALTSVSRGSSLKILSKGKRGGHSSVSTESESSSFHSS
- experiment.description: Competition binding assay on Jurkat cells with 125I-CPCR4 as radiotracer
- recorded.conditions: Jurkat cells, 125I-CPCR4 tracer, 2 h at room temperature; read-out: IC50 [nM] (Binding Data)
Where a SMILES comes first, the peptide text is derived from it. [ ]: non-standard residue; d: D form. The star is where a group is joined. DOTA(Ga) = O=C1CN2CCN3CCN(CC(=O)*)CCN(CC2)CC(=O)[O][Ga]([O]1)[O]C(=O)C3; DOTA(In) = O=C1CN2CCN3CCN(CC(=O)*)CCN(CC2)CC(=O)[O][In]([O]1)[O]C(=O)C3; 2Nal = N[C@@H](Cc1ccc2ccccc2c1)C(=O)O; dNMeOrn = CN[C@H](CCCN)C(=O)O

compound	lt.gt.eq	IC50 [nM]
CN1C(=O)[C@@H](Cc2ccc(O)cc2)NC(=O)CNC(=O)[C@H](Cc2ccc3ccccc3c2)NC(=O)[C@H](CCCNC(=N)N)NC(=O)[C@H]1CCCNC(=O)c1ccc(NC(=O)CCCCNC(=O)CN2CCN(CC(=O)O)CCN(CC(=O)O)CCN(CC(=O)O)CC2)cc1	=	121
CN1C(=O)[C@@H](Cc2ccc(O)cc2)NC(=O)CNC(=O)[C@H](Cc2ccc3ccccc3c2)NC(=O)[C@H](CCCNC(=N)N)NC(=O)[C@H]1CCCNC(=O)CN1CCN2CCN3CCN(CC1)CC(=O)[O][In]([O]C(=O)C2)[O]C(=O)C3 [Compound 20, yorn′(DOTA, In)RNalG] (cyclo([2Nal]G[dY][dNMeOrn](DOTA(In))R))	>	1000
CN1C(=O)[C@@H](Cc2ccc(O)cc2)NC(=O)CNC(=O)[C@H](Cc2ccc3ccccc3c2)NC(=O)[C@H](CCCNC(=N)N)NC(=O)[C@H]1CCCNC(=O)CN1CCN2CCN3CCN(CC1)CC(=O)[O][Ga]([O]C(=O)C2)[O]C(=O)C3 [Compound 21, yorn′(DOTA, Ga)RNalG] (cyclo([2Nal]G[dY][dNMeOrn](DOTA(Ga))R))	=	289

* * *

- subject.of.test: human-CXCR4 (Homo sapiens, UniProt P61073)
- Construct: tested first at Jurkat cells that endogenously express the CXCR4 receptor; endogenous in cells; host or cells: Jurkat cells (whole cells in suspension)
- experiment.description: Competition binding assay on Jurkat cells with 125I-CPCR4 as radiotracer
- recorded.conditions: Jurkat cells, 125I-CPCR4 tracer, 2 h at room temperature; read-out: IC50 [nM] (Binding Data)
Where a SMILES comes first, the peptide text is derived from it. Side-chain parts run from the residue outwards. [ ]: non-standard residue; d: D form. The star is where a group is joined. DOTA(Ga) = O=C1CN2CCN3CCN(CC(=O)*)CCN(CC2)CC(=O)[O][Ga]([O]1)[O]C(=O)C3; DOTA(In) = O=C1CN2CCN3CCN(CC(=O)*)CCN(CC2)CC(=O)[O][In]([O]1)[O]C(=O)C3; 2Nal = N[C@@H](Cc1ccc2ccccc2c1)C(=O)O; dNMeOrn = CN[C@H](CCCN)C(=O)O; AEEA = NCCOCCOCC(=O)O; Ava = NCCCCC(=O)O
test.readout: IC50

compound	subject.of.test	test.readout	result
CN1C(=O)[C@@H](Cc2ccc(O)cc2)NC(=O)CNC(=O)[C@H](Cc2ccc3ccccc3c2)NC(=O)[C@H](CCCNC(=N)N)NC(=O)[C@H]1CCCNC(=O)CCCCNC(=O)CCCCNC(=O)CN1CCN2CCN3CCN(CC1)CC(=O)[O][Ga]([O]C(=O)C2)[O]C(=O)C3 [Compound 24, yorn′(AVS, AVS, DOTA, Ga)RNalG] (cyclo([2Nal]G[dY][dNMeOrn]([Ava-Ava-DOTA(Ga)])R))	human-CXCR4 (Homo sapiens, UniProt P61073)	IC50	89.7 nM
CN1C(=O)[C@@H](Cc2ccc(O)cc2)NC(=O)CNC(=O)[C@H](Cc2ccc3ccccc3c2)NC(=O)[C@H](CCCNC(=N)N)NC(=O)[C@H]1CCCNC(=O)CNC(=O)COCCOCCNC(=O)CN1CCN2CCN3CCN(CC1)CC(=O)[O][In]([O]C(=O)C2)[O]C(=O)C3 [Compound 26, yorn′(G, Trigas, DOTA, In)RNalG] (cyclo([2Nal]G[dY][dNMeOrn]([Gly-AEEA-DOTA(In)])R))	human-CXCR4 (Homo sapiens, UniProt P61073)	IC50	457 nM
